ASSAYED_TARGET: T1, monkey DLL3 on CHO K1-cyno DLL3 cells (cynomolgus monkey)
T1 construct: also called monkey DLL3 recombinant cell line
T1 chain: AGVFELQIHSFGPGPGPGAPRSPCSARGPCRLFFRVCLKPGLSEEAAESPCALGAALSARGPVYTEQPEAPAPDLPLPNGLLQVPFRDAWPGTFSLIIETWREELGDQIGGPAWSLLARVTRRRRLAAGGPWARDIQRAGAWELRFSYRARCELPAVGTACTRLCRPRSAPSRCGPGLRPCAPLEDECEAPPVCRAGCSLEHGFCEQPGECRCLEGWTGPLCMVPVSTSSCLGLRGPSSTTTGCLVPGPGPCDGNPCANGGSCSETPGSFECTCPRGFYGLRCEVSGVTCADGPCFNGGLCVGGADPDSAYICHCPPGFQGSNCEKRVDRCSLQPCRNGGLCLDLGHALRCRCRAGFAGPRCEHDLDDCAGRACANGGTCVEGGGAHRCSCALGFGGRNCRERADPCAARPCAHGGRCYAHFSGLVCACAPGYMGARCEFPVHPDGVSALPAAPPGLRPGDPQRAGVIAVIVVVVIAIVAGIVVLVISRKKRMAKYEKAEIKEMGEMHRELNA
ASSAY_INFO: FACS, CHO K1-cyno DLL3 cells

BINDER: Hab008L3H5-hFc (Fc fusion, humanized mab008, VL-linker-VH-human IgG1 Fc; also called Hab008 humanized molecule; not shown: linker; human IgG1 Fc fragment) scFv (part 1 of 2): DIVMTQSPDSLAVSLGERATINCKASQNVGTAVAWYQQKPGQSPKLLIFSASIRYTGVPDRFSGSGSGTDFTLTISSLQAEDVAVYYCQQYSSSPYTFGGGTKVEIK scFv (part 2 of 2): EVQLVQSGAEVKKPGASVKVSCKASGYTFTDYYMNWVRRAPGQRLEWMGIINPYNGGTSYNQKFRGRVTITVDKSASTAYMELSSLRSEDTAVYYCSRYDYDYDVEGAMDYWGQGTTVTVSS
binding result: binds

BINDER: mab007 scFv-hFc (Fc fusion, human-murine chimeric scFv-hFc, VL-linker-VH-human IgG1 Fc; not shown: linker; Fc fragment of human IgG1) scFv (part 1 of 2): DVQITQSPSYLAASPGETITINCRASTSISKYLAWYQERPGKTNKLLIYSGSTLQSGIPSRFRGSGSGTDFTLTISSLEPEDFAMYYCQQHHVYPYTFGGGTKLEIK scFv (part 2 of 2): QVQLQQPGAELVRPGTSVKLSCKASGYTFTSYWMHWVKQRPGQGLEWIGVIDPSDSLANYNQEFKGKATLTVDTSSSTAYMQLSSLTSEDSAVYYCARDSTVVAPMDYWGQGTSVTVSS
binding result: binds

BINDER: mab005 scFv-hFc (Fc fusion, human-murine chimeric scFv-hFc, VL-linker-VH-human IgG1 Fc; not shown: linker; Fc fragment of human IgG1) scFv (part 1 of 2): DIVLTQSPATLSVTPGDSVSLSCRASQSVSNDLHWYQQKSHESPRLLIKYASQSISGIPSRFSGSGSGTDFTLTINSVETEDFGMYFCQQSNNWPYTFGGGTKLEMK scFv (part 2 of 2): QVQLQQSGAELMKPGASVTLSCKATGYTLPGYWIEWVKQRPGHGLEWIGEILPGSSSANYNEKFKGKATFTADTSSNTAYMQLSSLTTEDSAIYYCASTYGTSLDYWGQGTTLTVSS
binding result: binds
